Target: T1, Human GPR7 (human, UniProt P48145 1-328)
T1 sequence: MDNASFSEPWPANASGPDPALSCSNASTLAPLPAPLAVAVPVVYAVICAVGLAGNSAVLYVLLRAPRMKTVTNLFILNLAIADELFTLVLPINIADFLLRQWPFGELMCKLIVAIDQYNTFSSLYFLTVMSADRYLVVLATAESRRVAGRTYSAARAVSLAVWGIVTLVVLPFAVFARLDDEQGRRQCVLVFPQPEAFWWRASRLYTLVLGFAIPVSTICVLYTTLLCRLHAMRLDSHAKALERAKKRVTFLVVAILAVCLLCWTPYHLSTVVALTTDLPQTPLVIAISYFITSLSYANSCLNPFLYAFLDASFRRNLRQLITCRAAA
Assay: cell-based or functional assay
Recorded Promoting activity to GTPγS binding (EC50 nM) by entry
// return numeric value only (unit: nM, not printed)

Below, each entry is followed by its recorded Promoting activity to GTPγS binding (EC50 nM) result.
Quick one: Promoting activity to GTPγS binding (EC50 nM) of WYKHVASPRYHTVGRAAGLLMGLRRSPYLW (also called hGPR8L(1-30); Human GPR8 ligand (1-30)) [human homologue of GPR8 ligand peptide consisting of 30 residues] ?
0.67

Value lookup for Promoting activity to GTPγS binding (EC50 nM); key = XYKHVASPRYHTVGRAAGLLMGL (N-terminal Fmoc (N-9-fluorenylmethoxycarbonyl) on Trp 1, also called Fmoc-hGPR8L(1-23); Human GPR8 ligand (1-23) modified by Fmoc) [Fmoc-added Human GPR8L (1-23)]
6.6

Next:
Could you share which Promoting activity to GTPγS binding (EC50 nM) value was measured for WYKHVASPRYHTVGRAAGLLXGL (methionine sulfoxide, Met(O), at position 21, also called [MET(O)]-hGPR8L(1-23)) [Human GPR8 ligand (1-23) oxidant] ?
1.6
